# Tested system: T1, human IL-17A (construct not specified) (human, UniProt Q16552 24-155, limits assumed)
# T1 construct: also called huIL-17A
# T1 sequence: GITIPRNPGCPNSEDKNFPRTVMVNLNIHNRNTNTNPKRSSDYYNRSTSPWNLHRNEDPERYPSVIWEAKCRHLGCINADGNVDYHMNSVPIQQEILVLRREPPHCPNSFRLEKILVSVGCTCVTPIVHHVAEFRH
# Measurement protocol: ELISA, coated huIL-17A, then 200 nM XAB1 Fab as competitor
Value type: Competition ELISA (normalized to XAB1 Fab) (fold)

| Binder | Measurement units | Value |
| --- | --- | --- |
| MB457 (Fab, V domains shown, Fab variant of XAB1) VH: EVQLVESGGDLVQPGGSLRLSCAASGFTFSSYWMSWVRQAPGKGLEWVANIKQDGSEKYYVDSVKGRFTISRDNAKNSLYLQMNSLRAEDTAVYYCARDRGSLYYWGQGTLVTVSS VL: AIQLTQSPSSLSASVGDRVTITCRPSQGIIWSLAWYQQKPGKAPKLLIYDASSLENGVPSRFSGSGSGTDFTLTISSLQPEDFATYYCQQFNSYPLTFGGGTKVEIK | fold | 41 |
| MB432 (Fab, V domains shown, Fab variant of XAB1) VH: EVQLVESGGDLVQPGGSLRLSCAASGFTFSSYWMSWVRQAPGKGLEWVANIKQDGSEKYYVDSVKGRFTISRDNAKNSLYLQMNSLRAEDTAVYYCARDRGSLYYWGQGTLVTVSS VL: AIQLTQSPSSLSASVGDRVTITCRPSQGILFALAWYQQKPGKAPKLLIYDASSLENGVPSRFSGSGSGTDFTLTISSLQPEDFATYYCQQFNSYPLTFGGGTKVEIK | fold | 37.3 |
| MB486 (Fab, V domains shown, Fab variant of XAB1) VH: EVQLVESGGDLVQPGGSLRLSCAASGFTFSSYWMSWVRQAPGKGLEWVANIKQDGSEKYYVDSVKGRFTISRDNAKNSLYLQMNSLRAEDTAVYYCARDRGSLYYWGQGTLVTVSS VL: AIQLTQSPSSLSASVGDRVTITCRPSQGIWWMLAWYQQKPGKAPKLLIYDASSLENGVPSRFSGSGSGTDFTLTISSLQPEDFATYYCQQFNSYPLTFGGGTKVEIK | fold | 64.9 |
| MB433 (Fab, V domains shown, Fab variant of XAB1) VH: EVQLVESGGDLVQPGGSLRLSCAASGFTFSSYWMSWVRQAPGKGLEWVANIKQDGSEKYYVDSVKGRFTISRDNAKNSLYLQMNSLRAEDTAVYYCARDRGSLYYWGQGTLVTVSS VL: AIQLTQSPSSLSASVGDRVTITCRPSQGIYWGLAWYQQKPGKAPKLLIYDASSLENGVPSRFSGSGSGTDFTLTISSLQPEDFATYYCQQFNSYPLTFGGGTKVEIK | fold | 29.3 |
| MB448 (Fab, V domains shown, Fab variant of XAB1) VH: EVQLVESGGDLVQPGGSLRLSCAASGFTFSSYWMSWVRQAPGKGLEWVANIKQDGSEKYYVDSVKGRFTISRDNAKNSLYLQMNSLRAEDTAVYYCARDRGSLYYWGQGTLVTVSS VL: AIQLTQSPSSLSASVGDRVTITCRPSQGIVWMLAWYQQKPGKAPKLLIYDASSLENGVPSRFSGSGSGTDFTLTISSLQPEDFATYYCQQFNSYPLTFGGGTKVEIK | fold | 51.5 |
| MB468 (Fab, V domains shown, Fab variant of XAB1) VH: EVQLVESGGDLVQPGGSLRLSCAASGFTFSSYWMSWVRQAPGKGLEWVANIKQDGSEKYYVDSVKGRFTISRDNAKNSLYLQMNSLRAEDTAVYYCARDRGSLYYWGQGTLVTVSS VL: AIQLTQSPSSLSASVGDRVTITCRPSQGIYWELAWYQQKPGKAPKLLIYDASSLENGVPSRFSGSGSGTDFTLTISSLQPEDFATYYCQQFNSYPLTFGGGTKVEIK | fold | 60 |
| MB458 (Fab, V domains shown, Fab variant of XAB1) VH: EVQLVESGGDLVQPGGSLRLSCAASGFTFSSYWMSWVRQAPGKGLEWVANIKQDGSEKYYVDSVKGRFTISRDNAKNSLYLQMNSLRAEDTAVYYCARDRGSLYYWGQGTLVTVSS VL: AIQLTQSPSSLSASVGDRVTITCRPSQGIWYQLAWYQQKPGKAPKLLIYDASSLENGVPSRFSGSGSGTDFTLTISSLQPEDFATYYCQQFNSYPLTFGGGTKVEIK | fold | 42.1 |
| MB463 (Fab, V domains shown, Fab variant of XAB1) VH: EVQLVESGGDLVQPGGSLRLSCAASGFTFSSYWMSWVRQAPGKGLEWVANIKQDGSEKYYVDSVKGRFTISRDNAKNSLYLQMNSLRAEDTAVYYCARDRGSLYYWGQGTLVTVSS VL: AIQLTQSPSSLSASVGDRVTITCRPSQGIYFELAWYQQKPGKAPKLLIYDASSLENGVPSRFSGSGSGTDFTLTISSLQPEDFATYYCQQFNSYPLTFGGGTKVEIK | fold | 31.6 |
| MB450 (Fab, V domains shown, Fab variant of XAB1) VH: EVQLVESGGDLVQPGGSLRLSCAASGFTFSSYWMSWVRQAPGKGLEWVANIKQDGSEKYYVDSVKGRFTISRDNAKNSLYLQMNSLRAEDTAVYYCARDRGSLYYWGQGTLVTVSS VL: AIQLTQSPSSLSASVGDRVTITCRPSQGIMWWLAWYQQKPGKAPKLLIYDASSLENGVPSRFSGSGSGTDFTLTISSLQPEDFATYYCQQFNSYPLTFGGGTKVEIK | fold | 53.3 |
| MB456 (Fab, V domains shown, Fab variant of XAB1) VH: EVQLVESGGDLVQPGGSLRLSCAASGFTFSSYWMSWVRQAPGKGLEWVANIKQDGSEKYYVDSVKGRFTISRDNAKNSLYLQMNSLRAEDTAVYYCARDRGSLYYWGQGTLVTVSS VL: AIQLTQSPSSLSASVGDRVTITCRPSQGILWHLAWYQQKPGKAPKLLIYDASSLENGVPSRFSGSGSGTDFTLTISSLQPEDFATYYCQQFNSYPLTFGGGTKVEIK | fold | 46.7 |

// data source = patent US20170291939A1
